// reported aptazyme ON/OFF ratio per item
B1: Pistol ribozyme (parent)
chain: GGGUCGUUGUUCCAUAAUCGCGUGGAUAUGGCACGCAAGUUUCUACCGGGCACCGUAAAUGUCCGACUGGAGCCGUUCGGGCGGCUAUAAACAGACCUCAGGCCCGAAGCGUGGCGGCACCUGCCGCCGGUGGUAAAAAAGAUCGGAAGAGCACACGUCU

variants of: B1; assay: aptazyme ON/OFF ratio, guanine; higher = stronger switching; co-transcriptional cleavage with and without guanine
Please state the value as a number alone, without comment.

Recorded results for 3 variants are shown here.
>>> result("U7C U8A G9A U11C C13G")
1.02
>>> result("U7G U8G G9U U10A U11A C12A")
1.14
>>> result("U7A U8G G9U U10G U11G C12U")
1.36

Prompt line: aptazyme ON/OFF ratio for U8C U10A C12G C13U ?
Response line: 1.26

Prompt line: Also, U7C U8G G9A U10A U11C C12U please.
Response line: 1.05

Prompt line: Same thing, different variant: U7C U8A U10G U11C C12U C13U
Response line: 1.41

Prompt line: Also check U8C U10A U11G C12U C13A
Response line: 1.32

Prompt line: Now the variant U7C U8G G9A U10G C13U
Response line: 1.54

Prompt line: Next variant: U7C U8C G9C U10G C13A
Response line: 1.13

Prompt line: Further, for U7G U8C G9C U11C C12U C13A ?
Response line: 1.22

Prompt line: Try this variant too: U7A U8A G9U U10C U11G C13U
Response line: 1.14

Prompt line: Now try U7G U8C G9A C12G C13A .
Response line: 1.05

Prompt line: Same again, this time with U7A U8G G9C U10C U11G C12G
Response line: 1.16

Prompt line: Again, but for U7A G9A U10G U11A C12A C13A
Response line: 1.11

Prompt line: And then U7A U8A G9C U10A C12A C13G , what is it?
Response line: 1.16

Prompt line: U7G U8A G9A U10C ?
Response line: 2.73

Prompt line: Let us now turn to U7G U8A G9U U10C C12U C13G
Response line: 1.04

Prompt line: U7A U8A U10A U11C C12U , same question.
Response line: 1.03
